Target: DN-IV quality control recombinant protein (produced by the company) (dengue virus)
Test: BLI, antibody on AMC sensor

binder: Mutation 1-50 (antibody, V domains shown) VH: EVQLQQPGPELVKPGASVKMSCKASGYTFTSYVIHWVRQKPGQGLEWIGYMNPYNDGLKYNEKFIGKAILTSDKSSSTAYMQLSSLTSEDSAVYYCTKEGLFYVFDYWGQGTSVTVSS VL: QIVLTQSPAIMSASPGEKVTMTCSATSSISYMHWYQQKSGTSPKRWIYDTSKLASGVPVRFSGSGSGTSYSLTISSMEAEDAATYFCQYWRSDLPTFGAGTKLELKR
koff / s⁻¹: 0.000167
--
binder: Mutation 1-6 (antibody, V domains shown) VH: EVQLQQPGPELVKPGASVKMSCKASGYTFTSTVIHWVRQKPGQGLEWIGYMNPYNDGIKYNEKFIGKAILTSDKSSSTAYMQLSSLTSEDSAVYYCTKEGLFYVMDYWGQGTSVTVSS VL: QIVLTQSPAIMSASPGEKVTMTCSATSSISYMHWYQQKSGTSPKRWIYDTSKLASGVPVRFSGSGSGTSYSLTISSMEAEDAATYFCQYWRSDLPTFGAGTKLELKR
koff / s⁻¹: 0.000249

Cited source for all entries: patent US20210324054A1
